Numbers sourced from PubChem BioAssay (NCATS).

molecular target: Phospholipid hydroperoxide glutathione peroxidase GPX4 (Homo sapiens) (UniProt P36969); assay: Primary qHTS Assay for Inhibitors of Recombinant Selenoprotein Glutathione Peroxidase 4 (GPX4) (AID 1845192); conditions: recombinant GPX4, GR-coupled NADPH fluorescence, 15 min; series mostly up to 50 µM; note: nearly all actives have a fitted effect of over 65% in size
Sequence (P36969 whole entry, looked up): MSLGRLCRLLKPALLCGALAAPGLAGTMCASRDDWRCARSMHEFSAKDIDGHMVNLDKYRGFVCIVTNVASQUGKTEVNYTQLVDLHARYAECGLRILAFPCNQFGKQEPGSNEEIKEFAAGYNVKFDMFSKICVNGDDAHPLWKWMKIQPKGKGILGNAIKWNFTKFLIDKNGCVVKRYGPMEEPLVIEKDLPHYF
Records with an inconclusive call do not appear. Calls of active or inactive are those of the source. Calls come from the whole dose curve; as a rule, active = well fitted inhibition curve with a large enough effect; inconclusive = small, poorly fitted or top-dose-only effect; inactive = flat fitted curve, though single readings scatter.
Choose the fitting class; nothing outside Y (active), N (inactive) is accepted.

Input: Given CCOC(=O)CCC(=O)O[C@H]1[C@H](O[C@@H]2[C@@H](C)[C@H](O[C@H]3C[C@@](C)(OC)[C@@H](O)[C@H](C)O3)[C@@H](C)C(=O)O[C@H](CC)[C@@](C)(O)[C@H](O)[C@@H](C)C(=O)[C@H](C)CC2(C)O)O[C@H](C)C[C@@H]1N(C)C (stereo partly drawn) , state the outcome it received in this test.
Output: N

Input: // outcome(item) with item = C[C@H]1COCCN1c1cc(C2(S(=O)(=O)C3CC3)CC2)nc(-c2ccc(NC(=S)NCCO)cc2)n1
Output: N

Input: Short answer needed: outcome of this test for Cc1c[nH]c(/C=C2\C(=O)Nc3ccccc32)c1CCC(=O)O ?
Output: N

Input: Entry CN(CC(=O)N1CCOCC1)Cc1c(Cl)cccc1NC(=O)c1ccccc1 : call = ?
Output: N

Input: What did this assay record as the result for CCOC(=O)c1cnn(-c2ccc(NC(=O)C(Cl)=C(Cl)Cl)cc2)c1C(F)(F)F ?
Output: N

Input: Could you please tell me the result logged for Clc1ccccc1CNCC1CCC(CNCc2ccccc2Cl)CC1 (stereo not drawn) in this assay?
Output: N

Input: Tell me the assay call for CCOc1nc2cccc(C(=O)OC(C)OC(=O)OC3CCCCC3)c2n1Cc1ccc(-c2ccccc2-c2nn[nH]n2)cc1 (stereo not drawn) please.
Output: Y

Input: Outcome logged for CC1CCC2C(=CCC(O)C2(C)C)C1(C)Cc1c(O)cc(CO)c(C=O)c1O (stereo not drawn) in this assay:
Output: N

Input: # outcome recorded in this test, key = COc1ccc(Cl)cc1[C@@]1(F)C(=O)Nc2cc(C(F)(F)F)ccc21
Output: N

Input: Dear colleague, could you share the recorded outcome for CCOP(=O)(Cc1ccc(C(=O)Nc2ccc(Br)cc2C#N)cc1)OCC when you have a moment?
Output: N

* * *

assay: HEK-293 Cancer Cell Toxicity qHTS against the NCATS CANVASS Library (AID 1347355); conditions: HEK-293 viability, CellTiter-Glo luminescence, 72 h; series mostly up to 46.1 µM; note: nearly all actives have a fitted effect of over 65% in size
Results filed as inconclusive are left out. Calls of active or inactive are those of the source. The call rests on the fitted dose curve; in most records, active means well fitted cell-killing curve with a large enough effect; inconclusive means small, poorly fitted or top-dose-only effect; inactive means flat fitted curve, though single readings scatter.
Could you please pick one outcome from this set? yes = active, no = inactive

Previously resolved entries follow.
| COMPOUND | QUALITATIVE_LABEL |
| --- | --- |
| CO[C@H]1/C=C/CC[C@@H](S[C@@H]2O[C@H](CO)[C@@H](O)[C@H](O)[C@H]2O)CC(=O)O[C@@H](/C(C)=C/[C@H](C)C(=O)CCCC2CC(=O)NC(=O)C2)[C@@H](C)[C@@H]1O | yes |
| C=C(C)[C@@H]1CC[C@]2(C)CC[C@]3(C)[C@H](CC[C@@H]4[C@@]5(C)CC[C@H](O)C(C)(C)[C@@H]5CC[C@]43C)[C@@H]12 | no |
| COc1ccc2cc(NC(=O)C3=NO[C@H]4[C@H](O)C=C[C@@H](Cl)[C@@]4(O)C3)c(=O)oc2c1OC | no |
| CO[C@@H]1C[C@@H](C[C@H]2CC[C@H](C)[C@H]([C@@H](C)C(=O)O)O2)O[C@]2(O[C@](C)([C@H]3CC[C@@](C)([C@@H]4O[C@@H]([C@H]5O[C@](C)(O)[C@H](C)C[C@@H]5C)C[C@@H]4C)O3)C[C@H]2C)[C@@H]1C | yes |

Input: Call for entry C[C@H]1C[C@@H]([C@@H]2CC[C@]34O[C@H](CC[C@@]35C[C@H](C)C(=O)O5)CN24)OC1=O :
Output: no

Input: Dear colleague, could you share the recorded outcome for Oc1ccc(C2c3c(O)cc(O)cc3[C@@H]3C(c4ccc(O)cc4)c4c(O)cc(O)cc4[C@H]23)cc1 (stereo partly specified) when you have a moment?
Output: no

Input: Per the records of this test, what outcome belongs to CC1(C)[C@H](Br)CC[C@]23C[C@]4(C)C(=O)CC12C[C@H]34 ?
Output: no

Input: Test call, this compound: C=C1C[C@@]23C=CC(=O)[C@@](C)(CCC(=O)Nc4c(O)ccc(C(=O)O)c4O)C2C[C@@H]1CC3 (stereo partly specified)
Output: no

Input: Give the logged outcome of this assay for the following compound: CC1(C)C=Cc2c(ccc3c2OC[C@@H](c2ccc(O)cc2O)C3)O1
Output: no

Input: // param item: C[C@@H]1O[C@@H](O[C@@H]2[C@@H](O)[C@H](O[C@@H]3[C@@H](O)[C@@H](O)C(O[C@H]4[C@H](OC(=O)[C@]56CCC(C)(C)C[C@H]5C5=CCC7[C@@]8(C)C[C@H](O)[C@H](O[C@@H]9C[C@H](CO)[C@@H](O)[C@H](O)[C@H]9O)[C@@](C)(CO)C8[C@H](O)C[C@@]7(C)[C@]5(C)CC6)OC[C@H](O)[C@@H]4O)O[C@H]3C)OC[C@H]2O)[C@H](O)[C@H](O)[C@H]1O (stereo partly specified) ; yields the recorded call
Output: no

Input: Entry CO[C@@H]1[C@H](O)[C@@H](C)O[C@@H](OC[C@@H]2C(C)OC(=O)/C=C/[C@H](C)C(O[C@@H]3O[C@H](C)CC4(OC(=O)O[C@@H]4C)C3O)[C@@H](C)CC(C)C(=O)CC[C@H]3OC23)[C@@H]1OC (stereo partly specified) : call = ?
Output: no
